Target: UniProtKB P42338
Sequence (P42338 whole entry): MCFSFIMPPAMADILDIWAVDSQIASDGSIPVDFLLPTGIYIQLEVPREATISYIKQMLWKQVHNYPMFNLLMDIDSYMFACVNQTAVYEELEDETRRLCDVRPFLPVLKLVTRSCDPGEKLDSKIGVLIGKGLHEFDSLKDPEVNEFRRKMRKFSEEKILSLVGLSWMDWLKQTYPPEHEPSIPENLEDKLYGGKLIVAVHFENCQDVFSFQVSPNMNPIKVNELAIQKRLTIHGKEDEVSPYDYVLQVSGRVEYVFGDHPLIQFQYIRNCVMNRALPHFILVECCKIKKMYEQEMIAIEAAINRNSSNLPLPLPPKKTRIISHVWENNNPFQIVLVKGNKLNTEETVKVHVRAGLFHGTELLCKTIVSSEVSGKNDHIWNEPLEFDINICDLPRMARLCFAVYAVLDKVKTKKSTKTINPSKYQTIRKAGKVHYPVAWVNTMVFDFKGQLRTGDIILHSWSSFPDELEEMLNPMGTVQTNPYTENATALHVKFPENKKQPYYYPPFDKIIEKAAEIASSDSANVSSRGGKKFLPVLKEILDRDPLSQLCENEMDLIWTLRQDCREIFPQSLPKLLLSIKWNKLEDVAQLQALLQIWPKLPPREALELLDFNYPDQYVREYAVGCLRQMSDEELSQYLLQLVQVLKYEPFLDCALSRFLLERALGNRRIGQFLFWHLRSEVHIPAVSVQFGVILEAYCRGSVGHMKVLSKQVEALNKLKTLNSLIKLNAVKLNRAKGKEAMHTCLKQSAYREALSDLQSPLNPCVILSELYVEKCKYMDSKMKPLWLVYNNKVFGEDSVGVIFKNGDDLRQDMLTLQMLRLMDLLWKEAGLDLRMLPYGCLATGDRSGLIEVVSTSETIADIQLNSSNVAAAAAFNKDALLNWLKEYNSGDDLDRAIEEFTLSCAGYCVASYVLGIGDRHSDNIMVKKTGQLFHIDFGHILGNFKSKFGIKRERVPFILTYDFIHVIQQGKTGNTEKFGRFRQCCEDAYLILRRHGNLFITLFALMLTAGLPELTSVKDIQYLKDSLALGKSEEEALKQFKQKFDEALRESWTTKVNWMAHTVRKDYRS
Sequence (P27986 461-568 partner): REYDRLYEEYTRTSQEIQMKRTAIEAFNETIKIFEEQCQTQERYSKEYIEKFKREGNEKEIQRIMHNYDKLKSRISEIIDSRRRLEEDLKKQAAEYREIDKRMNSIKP
Experiment: Kinase Glo Luminescent Kinase Assay (Kglo), assay B
Format: biochemical
Conditions: read-out: Assay B PI3Kβ IC50
measure: IC50 (nM)
Reply numerically in nM, unit not repeated.

compound	study-system	IC50 [nM]
COc1nc(-c2nc(-c3cc(S(=O)(=O)NCCC(C)(C)O)ccc3C)cnc2N)cs1	UniProtKB P42338	520
Cc1ccc(S(=O)(=O)NCC(C)(C)O)cc1-c1cnc(N)c(-c2nc(C3CC3)no2)n1	UniProtKB P42338	4100
Cc1ncc(-c2nc(-c3cc(S(=O)(=O)N[C@H]4CC[C@H](O)CC4)ccc3C)cnc2N)s1	UniProtKB P42338	620

Please turn your attention to the following entry.
Task: Could you tell me which IC50 is on file for Cc1cc(-c2nc(-c3cc(S(=O)(=O)N[C@H]4CC[C@H](O)CC4)ccc3C)cnc2N)ccn1 ?
Output: 5220
